Below, each entry is listed alongside its reported Ki.
biological target: human Factor Xa (Homo sapiens); construct: containing human Factor Xa (final conc. Of 0.0003 U·ml-1); assay: In vitro fluorogenic assay for inhibition of Factor Xa; assay type: biochemical; settings: human Factor Xa, Rhodamine 110 bis-CBZ-glycylglycyl-L-arginine amide substrate 10 μM, 15 min preincubation, room temperature, pH 7.4; Ki = IC50/1.6; read-out: Ki value
Sequence (P00742 235-488 limits assumed): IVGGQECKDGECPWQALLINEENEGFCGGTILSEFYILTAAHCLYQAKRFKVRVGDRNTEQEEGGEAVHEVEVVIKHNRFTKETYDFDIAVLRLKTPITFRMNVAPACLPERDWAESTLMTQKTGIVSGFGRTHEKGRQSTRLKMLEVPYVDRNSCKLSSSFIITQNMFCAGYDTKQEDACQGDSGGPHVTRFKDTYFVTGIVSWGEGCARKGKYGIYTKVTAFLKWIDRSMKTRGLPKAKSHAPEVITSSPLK
Sequence (P00742 41-179 partner limits assumed): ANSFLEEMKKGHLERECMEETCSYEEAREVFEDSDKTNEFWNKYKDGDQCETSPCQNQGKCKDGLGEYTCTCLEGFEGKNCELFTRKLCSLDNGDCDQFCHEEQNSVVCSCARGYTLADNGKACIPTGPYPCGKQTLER
Counter-ions that a name gives are not always drawn.

Sample answers from the record:
{"Compound": "CN(CCN)C(=O)c1ccc(N2CCC(NS(=O)(=O)c3cc4ccc(Cl)cc4s3)C2=O)c(F)c1 (stereo not drawn) [Example 28]", "Target Or Test System": "human Factor Xa (Homo sapiens)", "Ki": "< 1000 nM"}
{"Compound": "CN(C)CCN(C)C(=O)c1ccc(N2CCC(NS(=O)(=O)c3cc4ccc(Cl)cc4s3)C2=O)c(F)c1 (stereo not drawn) [Example 25, formate]", "Target Or Test System": "human Factor Xa (Homo sapiens)", "Ki": "< 1000 nM"}
{"Compound": "CNCCN(C)C(=O)c1ccc(N2CCC(NS(=O)(=O)c3cc4ccc(Cl)cc4s3)C2=O)c(F)c1 (stereo not drawn) [Example 26, formate]", "Target Or Test System": "human Factor Xa (Homo sapiens)", "Ki": "< 100 nM"}

Using the record for O=C(NCc1cccnc1)c1ccc(N2CCC(NS(=O)(=O)/C=C/c3ccc(Cl)s3)C2=O)c(F)c1 (stereo not drawn) [Example 9] , report its Ki.
< 1000 nM

Using the record for CN(CCc1cccnc1)C(=O)c1ccc(N2CCC(NS(=O)(=O)c3cc4ccc(Cl)cc4s3)C2=O)c(F)c1 (stereo not drawn) [Example 27] , report its Ki.
< 100 nM

Using the record for C/C(=C\S(=O)(=O)NC1CCN(c2ccc(C(=O)N(C)CCS(C)(=O)=O)cc2F)C1=O)c1ccc(Cl)s1 (stereo not drawn) [Example 4] , report its Ki.
< 100 nM

Using the record for O=C(NCc1ccncc1)c1ccc(N2CCC(NS(=O)(=O)/C=C/c3ccc(Cl)s3)C2=O)c(F)c1 (stereo not drawn) [Example 8] , report its Ki.
< 1000 nM

Using the record for C/C(=C\S(=O)(=O)NC1CCN(c2ccc(C(=O)N(C)CCO)cc2F)C1=O)c1ccc(Cl)s1 (stereo not drawn) [Example 2] , report its Ki.
< 1000 nM

Using the record for C/C(=C\S(=O)(=O)NC1CCN(c2ccc(C(=O)N(C)CCN(C)C)cc2F)C1=O)c1ccc(Cl)s1 (stereo not drawn) [Example 29, formate] , report its Ki.
< 100 nM
